target: UniProtKB P36544; conditions: read-out: α7 EC50; Table 3; unit inferred
Readout: EC50 (µM)
Give bare numbers, in µM.

Request: What value of EC50 has been recorded for this entry: CC[N+]1(CC)CCN(c2ccc(NC(=O)c3cccc(C)n3)cc2)CC1.[I-]
Response: 78.3

----------
Field: pEC50. Provide a value for each of the compounds that follow.
target: α9 nAChR (Homo sapiens, UniProt Q9UGM1); conditions: read-out: α9 EC50; Table 1; unit not given (0.23 as 230 nM)
Sequence (Q9UGM1 26-479 limits assumed): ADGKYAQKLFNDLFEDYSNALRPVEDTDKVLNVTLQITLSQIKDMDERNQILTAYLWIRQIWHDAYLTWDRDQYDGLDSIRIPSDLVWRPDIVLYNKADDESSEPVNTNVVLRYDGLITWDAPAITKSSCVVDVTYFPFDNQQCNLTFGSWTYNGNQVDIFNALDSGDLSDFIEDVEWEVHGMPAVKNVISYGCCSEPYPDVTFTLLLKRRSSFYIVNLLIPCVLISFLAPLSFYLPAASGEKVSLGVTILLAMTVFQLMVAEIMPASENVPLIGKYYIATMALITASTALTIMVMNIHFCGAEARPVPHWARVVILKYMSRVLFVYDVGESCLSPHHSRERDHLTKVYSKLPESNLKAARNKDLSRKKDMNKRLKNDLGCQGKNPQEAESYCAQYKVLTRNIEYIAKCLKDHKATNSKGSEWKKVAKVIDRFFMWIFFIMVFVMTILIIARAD
Numbers only, as −log10 of the molar value.

// known answers, use as guide
Request: Lookup: pEC50 / α9 nAChR (Homo sapiens, UniProt Q9UGM1) / CC[N+]1(CC)CCN(c2ccc(NC(=O)c3cccc(C)n3)cc2)CC1.[I-]
Response: 5.79

Request: Lookup: pEC50 / α9 nAChR (Homo sapiens, UniProt Q9UGM1) / CC[N+]1(C)CCN(c2ccc(C(=O)Nc3cccc(C)n3)cc2)CC1 [Compound 3f, reference compound]
Response: 6.29

Request: Lookup: pEC50 / α9 nAChR (Homo sapiens, UniProt Q9UGM1) / CC[N+]1(C)CCN(c2ccc(NC(=O)c3cccc(C)n3)cc2)CC1
Response: 6.64

***
Request: Lookup: pEC50 / α9 nAChR (Homo sapiens, UniProt Q9UGM1) / CC[N+]1(C)CCN(c2ccc(NC(C)=O)cc2)CC1
Response: 5.64

----------
target: α9 nAChR (Homo sapiens)
Readout: receptor selectivity α9 vs α7

Request: What value of receptor selectivity α9 vs α7 has been recorded for this entry: Cc1cccc(NC(=O)c2ccc(N3CC[N+](C)(C)[C@@H](C)C3)cc2)n1 [Compound IV-e]
Response: selective for α7

Request: What value of receptor selectivity α9 vs α7 has been recorded for this entry: Cc1cccc(NC(=O)c2ccc(N3CC[N+](C)(C)[C@H](C)C3)cc2)n1 [IV-f]
Response: selective for α7

----------
target: α9 nAChR (Homo sapiens, UniProt Q9UGM1); conditions: Table 4; chiral EMPPs and diMPPs
Field: α9 Imax. Provide a value for each of the compounds that follow.

// known answers, use as guide
Request: What value of α9 Imax has been recorded for this entry: Cc1cccc(NC(=O)c2ccc(N3CC[N+](C)(C)[C@@H](C)C3)cc2)n1 [Compound IV-e]
Response: 0.04 ± 0.005

Request: What value of α9 Imax has been recorded for this entry: CC[N+]1(C)CCN(c2ccc(C(=O)Nc3cccc(C)n3)cc2)C[C@@H]1C (some centres unmarked) [IV-b]
Response: 0.670 ± 0.02

Request: What value of α9 Imax has been recorded for this entry: CC[N+]1(C)CCN(c2ccc(C(=O)Nc3cccc(C)n3)cc2)C[C@H]1C (some centres unmarked) [Compound IV-a]
Response: 0.052 ± 0.013

Request: What value of α9 Imax has been recorded for this entry: CC[N+]1(C)CCN(c2ccc(C(=O)Nc3cccc(C)n3)cc2)CC1 [Compound 3f, reference compound]
Response: 1.19 ± 0.03

Here's the next entry for you.
Request: What value of α9 Imax has been recorded for this entry: Cc1cccc(NC(=O)c2ccc(N3CC[N+](C)(C)[C@H](C)C3)cc2)n1 [IV-f]
Response: 0.0065 ± 0.72

----------
Field: α7 Imax. Provide a value for each of the molecules that follow.
molecular target: human α7 nAChR (Homo sapiens, UniProt P36544); details: Table 3
Sequence (P36544 23-502): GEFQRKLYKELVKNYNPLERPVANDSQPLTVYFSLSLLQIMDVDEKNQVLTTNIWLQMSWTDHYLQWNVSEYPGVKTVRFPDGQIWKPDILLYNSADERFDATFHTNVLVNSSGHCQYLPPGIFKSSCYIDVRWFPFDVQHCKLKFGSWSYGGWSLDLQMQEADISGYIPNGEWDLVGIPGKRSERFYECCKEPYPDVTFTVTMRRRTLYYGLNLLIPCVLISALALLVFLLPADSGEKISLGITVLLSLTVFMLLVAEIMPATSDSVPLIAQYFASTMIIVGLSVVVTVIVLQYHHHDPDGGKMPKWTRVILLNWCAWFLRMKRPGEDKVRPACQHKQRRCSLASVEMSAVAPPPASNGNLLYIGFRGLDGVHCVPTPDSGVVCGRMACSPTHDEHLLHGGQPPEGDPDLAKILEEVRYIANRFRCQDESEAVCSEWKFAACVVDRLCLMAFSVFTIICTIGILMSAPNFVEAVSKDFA
Numbers only.

// known answers, use as guide
Request: What value of α7 Imax has been recorded for this entry: CC[N+]1(C)CCN(c2ccc(NC(=O)c3ncc(C(F)(F)F)cc3Cl)cc2)CC1
Response: 0.001

Request: What value of α7 Imax has been recorded for this entry: CC[N+]1(CC)CCN(c2ccc(NC(=O)c3cccc(C)n3)cc2)CC1.[I-]
Response: 0.41

Request: What value of α7 Imax has been recorded for this entry: CC[N+]1(C)CCN(c2ccc(NC(=O)c3ccc(C)cn3)cc2)CC1
Response: 0.266

Request: What value of α7 Imax has been recorded for this entry: CC[N+]1(C)CCN(c2ccc(NC(=O)c3cccc(Br)n3)cc2)CC1
Response: 0.094

Request: What value of α7 Imax has been recorded for this entry: CC[N+]1(C)CCN(c2ccc(NC(=O)c3ccc4ccccc4n3)cc2)CC1
Response: 0.124

Go through the list and state α7 Imax for each entry.
1. CC[N+]1(C)CCN(c2ccc(NC(=O)c3cccc(F)n3)cc2)CC1
2. CC[N+]1(C)CCN(c2ccc(NC(=O)c3cccc(Cl)n3)cc2)CC1

Response:
1: 0.000; 2: 0.10

----------
target: UniProt Q9UGM1; conditions: Table 1; peak current, relative to ACh maximum
Field: α9 Imax. Provide a value for each of the compounds that follow.
Give bare numbers.

// known answers, use as guide
Request: What value of α9 Imax has been recorded for this entry: CC[N+]1(C)CCN(c2ccc(C(=O)Nc3cccc(C)n3)cc2)CC1 [Compound 3f, reference compound]
Response: 1.19

Request: What value of α9 Imax has been recorded for this entry: CC[N+]1(C)CCN(c2ccc(NC(=O)c3cccc(C)n3)cc2)CC1
Response: 1.01

Request: What value of α9 Imax has been recorded for this entry: CC[N+]1(C)CCN(c2ccc(NC(C)=O)cc2)CC1
Response: 0.75

Here's the next entry for you.
Request: What value of α9 Imax has been recorded for this entry: CC[N+]1(CC)CCN(c2ccc(NC(=O)c3cccc(C)n3)cc2)CC1.[I-]
Response: 1.24

----------
biological target: α9 nAChR (Homo sapiens); test: cell-based
Readout: pEC50
One number for each entry, as −log10 of the molar value.

// known answers, use as guide
Request: What value of pEC50 has been recorded for this entry: CC[N+]1(C)CCN(c2ccc(NC(=O)c3ccc4ccccc4n3)cc2)CC1 [V-f]
Response: 6.80

Request: What value of pEC50 has been recorded for this entry: CC[N+]1(C)CCN(c2ccc(NC(=O)c3cccc(Br)n3)cc2)CC1 [V-a]
Response: 6.36

Go through the list and state pEC50 for each entry.
1. CC[N+]1(C)CCN(c2ccc(NC(=O)c3ccc(C)cn3)cc2)CC1 [V-h]
2. CC[N+]1(C)CCN(c2ccc(NC(C)=O)cc2)CC1 [Compound III]
3. CC[N+]1(C)CCN(c2ccc(NC(=O)c3cccc(Cl)n3)cc2)CC1 [V-b]
4. CC[N+]1(C)CCN(c2ccc(NC(=O)c3ncc(C(F)(F)F)cc3Cl)cc2)CC1 [V-i]
5. CC[N+]1(C)CCN(c2ccc(NC(=O)c3cccc(F)n3)cc2)CC1 [V-c]

Response:
1. 6.36
2. 6.64
3. 6.25
4. 6.09
5. 6.09

----------
biological target: α9 nAChR (Homo sapiens, UniProt Q9UGM1); assay: Inhibition of ACh-evoked currents, co-application with 60 μM ACh, oocytes expressing α9; settings: co-applied with 60 μM ACh; read-out: IC50 as antagonist on α9
Readout: pIC50
Answers are plain numbers, as −log10 of the molar value.

Request: What value of pIC50 has been recorded for this entry: Cc1cccc(NC(=O)c2ccc(N3CC[N+](C)(C)[C@@H](C)C3)cc2)n1
Response: 6.62

***
Request: What value of pIC50 has been recorded for this entry: Cc1cccc(NC(=O)c2ccc(N3CC[N+](C)(C)[C@H](C)C3)cc2)n1
Response: 6.68

----------
biological target: human α7 nAChR (Homo sapiens, UniProt P36544); details: read-out: α7 EC50; Table 4; unit inferred
Field: EC50. Provide a value for each of the compounds that follow.
One number for each entry, in µM.

Request: What value of EC50 has been recorded for this entry: CC[N+]1(C)CCN(c2ccc(C(=O)Nc3cccc(C)n3)cc2)C[C@@H]1C (some centres unmarked) [IV-b]
Response: 7.1

Request: What value of EC50 has been recorded for this entry: CC[N+]1(C)CCN(c2ccc(C(=O)Nc3cccc(C)n3)cc2)C[C@H]1C (some centres unmarked) [Compound IV-a]
Response: 7.16

Go through the list and state EC50 for each entry.
1. Cc1cccc(NC(=O)c2ccc(N3CC[N+](C)(C)[C@@H](C)C3)cc2)n1 [Compound IV-e]
2. CC[N+]1(C)CCN(c2ccc(C(=O)Nc3cccc(C)n3)cc2)CC1 [Compound 3f, reference compound]

Response:
3.49
6.1

Request: What value of EC50 has been recorded for this entry: Cc1cccc(NC(=O)c2ccc(N3CC[N+](C)(C)[C@H](C)C3)cc2)n1 [IV-f]
Response: 3.06

----------
biological target: α9 nAChR (Homo sapiens, UniProt Q9UGM1); conditions: Table 2; chiral compounds
Field: α9 Imax. Provide a value for each of the molecules that follow.
One number for each entry.

// known answers, use as guide
Request: What value of α9 Imax has been recorded for this entry: Cc1cccc(NC(=O)c2ccc(N3CC[N+](C)(C)[C@H](C)C3)cc2)n1
Response: 0.0065

Request: What value of α9 Imax has been recorded for this entry: CC[N+]1(C)CCN(c2ccc(C(=O)Nc3cccc(C)n3)cc2)C[C@H]1C (stereo partly shown)
Response: 0.0521

Go through the list and state α9 Imax for each entry.
1. CC[N+]1(C)CCN(c2ccc(C(=O)Nc3cccc(C)n3)cc2)C[C@@H]1C (stereo partly shown)
2. Cc1cccc(NC(=O)c2ccc(N3CC[N+](C)(C)[C@@H](C)C3)cc2)n1

Response:
[0.670, 0.04]
